Test system: CDK8
Conditions: concentration: 1 μM, replicates: in singlicate; n = 1
readout-name: %Inh (%)
The reply should be a number in %, with the unit left off.

Sample records with %Inh:
>  <molecule>
Cl.Cl.NCC(NC(=O)c1cc(-c2cccnc2)c(-c2ccnc3[nH]ccc23)s1)c1ccccc1 (stereo not shown) [GSK1323434]

>  <tested-system>
CDK8

>  <unit-label>
%

>  <%Inh>
43

$$$$
>  <molecule>
CN(c1ccc2c(c1)nc(NCc1ccccc1)n2C)c1ccnc(Nc2ccc(CS(C)(=O)=O)cc2)n1.Cl [GW811603]

>  <tested-system>
CDK8

>  <unit-label>
%

>  <%Inh>
79

$$$$
>  <molecule>
Cc1ccc(Nc2ccnc(Nc3ccc(C)c(F)c3)n2)cc1O.Cl [GW582868]

>  <tested-system>
CDK8

>  <unit-label>
%

>  <%Inh>
0

$$$$
>  <molecule>
COc1cc(Nc2ccnc3cc(-c4ccncc4)ccc23)cc(OC)c1OC.Cl [GW494610]

>  <tested-system>
CDK8

>  <unit-label>
%

>  <%Inh>
43

$$$$
>  <molecule>
Fc1cc(Cl)ccc1Nc1ccnc2cc(-c3ccc(CN4CCSCC4)o3)ccc12 [GW560106]

>  <tested-system>
CDK8

>  <unit-label>
%

>  <%Inh>
53

$$$$
>  <molecule>
N#CC1(c2cccc(C(=O)Nc3cccc(Oc4ccc5nc(NC(=O)C6CC6)sc5n4)c3)c2)CC1

>  <tested-system>
CDK8

>  <unit-label>
%

>  <%Inh>
35

$$$$
>  <molecule>
O=C(O)C(F)(F)F.O=c1[nH]ccc2nc(N[C@@H]3CCNC3)nc(Nc3cc(Cl)cc(Cl)c3)c12 [GSK2188764]

>  <tested-system>
CDK8

>  <unit-label>
%

>  <%Inh>
0

$$$$
>  <molecule>
COc1ccc(C2=C(Nc3cccc(O)c3)C(=O)NC2=O)cc1 [SB-390766]

>  <tested-system>
CDK8

>  <unit-label>
%

>  <%Inh>
0

$$$$
>  <molecule>
Cc1cc(-c2c(-c3ccc(F)cc3)ncn2CCCN2CCOCC2)nc(N)n1 [SB-222517]

>  <tested-system>
CDK8

>  <unit-label>
%

>  <%Inh>
0

$$$$
>  <molecule>
CC(C)NCC(Cc1ccccc1)NC(=O)c1cc(Br)c(-c2ccnc3[nH]ccc23)s1.Cl.Cl (stereo not shown) [GSK1383281]

>  <tested-system>
CDK8;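 further: KINOMEscan kinase panel screen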

>  <unit-label>
%

>  <%Inh>
34

$$$$

Lookup result for COc1ccc(NC(=O)c2ccoc2)cc1-c1ccc(C(=O)NCC2CC2)cc1 [GW810437] ; measured %Inh: 38

Lookup result for Cc1ccc(NC(=O)c2ccc(Cl)c(Cl)c2)cc1-c1ccc(C(=O)Nc2ccncc2)cc1 [GSK1398460] ; measured %Inh: 0

Lookup result for O=C(Nc1n[nH]c2nc(-c3ccccc3)ccc12)C1CC1 [SB-708999] ; measured %Inh: 36

Lookup result for Cn1cc(-c2ccc3c(c2)CCN3C(=O)Cc2cc(F)cc(C(F)(F)F)c2)c2c(N)ncnc21 [GSK2635225] ; measured %Inh: 91.8

Lookup result for COc1cc(Nc2nccc(N3CCC(NS(=O)(=O)c4ccc(NC(C)=O)cc4)CC3)n2)cc(OC)c1OC [GSK1379825] ; measured %Inh: 31

Lookup result for Cc1ccc(O)cc1Nc1ccnc2ccc(C(C)(C)C)cc12 [GW856805] ; measured %Inh: 0

Lookup result for CS(=O)(=O)c1cccc(CNc2nc(Nc3ccc4c(c3)CCC(=O)N4)ncc2C(F)(F)F)c1 ; measured %Inh: 0

Lookup result for O=C(Nc1n[nH]c2nc(-c3ccccc3O)ccc12)C1CC1 [SB-711880] ; measured %Inh: 0

Lookup result for Nc1cccc(-c2ccc3c(N)n[nH]c3c2)c1 [GSK2193613] ; measured %Inh: 42

Lookup result for CCn1cnc2c(NCc3ccccc3)ncnc21 [SKF-96418] ; measured %Inh: 40

Lookup result for COC(=O)Nc1nc2ccc(Oc3ccc(NC(=O)Nc4cc(C(F)(F)F)ccc4F)cc3)cc2[nH]1.Cl [GW654607] ; measured %Inh: 84

Lookup result for Fc1cc(Cl)ccc1Nc1ccnc2cc(-c3ccc(CN4CCOCC4)o3)ccc12 [GW560109] ; measured %Inh: 0

Lookup result for COc1cccc(-c2nc(-c3ccccc3)[nH]c2-c2ccncc2)c1 [SB-610250] ; measured %Inh: 30

Lookup result for O=C1NC(=O)C(c2ccccc2Cl)=C1Nc1cccc(Cl)c1 [SB-342409] ; measured %Inh: 0

Lookup result for CN(c1ccc(NC(=O)N2CCN(CCCN3CCOCC3)CC2)cc1)c1ccnc(Nc2ccc(CS(C)(=O)=O)cc2)n1.Cl [GW830899] ; measured %Inh: 44
